# System: E. coli TESEC Mtb Asd
# assayExplanation: growth (OD600 after 10 h); higher = more growth (less inhibition)
# conditionContext: arabinose induction (level): High; compound 0.1 mM; raw OD600 reference: median of DMSO wells 0.331, cell-free background 0.041
Where a name gives a salt, the structure may show the parent alone.
measuredMetric: growth
Give bare numbers.

> print(dat)
                                   compound    val
1  CC[C@]12CCCN3CCc4c(n(c5ccccc45)[C@@](O)(C(=O)OC)C1)[C@@H]32 [Vincamine]  0.375
2  Cc1onc(-c2ccccc2)c1C(=O)N[C@@H]1C(=O)N2[C@@H]1SC(C)(C)[C@@H]2C(=O)O [Oxacillin sodium]  0.468
3  CN1CC2c3ccccc3Oc3ccc(Cl)cc3C2C1 (stereo not drawn) [Asenapine maleate]  0.229

Hi! Can you tell me growth for each of these compounds?
1. CCOC(=O)[C@@](C)(N)Cc1ccc(O)c(O)c1 [Methyldopate hydrochloride]
2. CCc1c(C)[nH]c2c1C(=O)C(CN1CCOCC1)CC2 (stereo not drawn) [Molindone hydrochloride]
3. CC(C)Oc1ccc2c(=O)c(-c3ccccc3)coc2c1 [Ipriflavone]
4. CN1CCCN=C1/C=C/c1cccc(O)c1 [Oxantel pamoate]
5. Cc1c(N)c(=O)n(-c2ccccc2)n1C [Ampyrone]
6. Nc1ccc(C(=O)NCC(=O)O)cc1 [Aminohippuric acid]
7. CC(=O)Oc1ccccc1C(=O)O [Acetylsalicylic acid]
8. CCCCC1C(=O)N(c2ccccc2)N(c2ccccc2)C1=O [Phenylbutazone]

Result:
0.163
0.274
0.345
0.282
0.368
0.372
0.264
0.145

---

# Test system: E. coli TESEC Mtb DapB
# assayExplanation: growth (OD600 after 10 h); higher = more growth (less inhibition)
# conditionContext: arabinose induction (level): High; compound 0.1 mM; raw OD600 reference: median of DMSO wells […], cell-free background 0.041
Where a name gives a salt, the structure may show the parent alone.
Cut-off 0.09 on growth, inclusive. At or above means y; below means n.

compound	classification
CN1CCN(c2c(F)cc3c(=O)c(C(=O)O)cn4c3c2SCC4)CC1	n
CC[C@H]1OC(=O)[C@H](C)[C@@H](O[C@H]2C[C@@](C)(OC)[C@@H](O)[C@H](C)O2)[C@H](C)[C@@H](O[C@@H]2O[C@H](C)C[C@H](N(C)C)[C@H]2O)[C@](C)(O)C[C@@H](C)/C(=N\OCOCCOC)[C@H](C)[C@@H](O)[C@]1(C)O	n
CC(C)c1ccc2oc3nc(N)c(C(=O)O)cc3c(=O)c2c1	y
COc1ccccc1OCC(O)COC(N)=O (stereo not drawn)	y
N=C(N)NC(=O)Cc1c(Cl)cccc1Cl [Guanfacine hydrochloride]	y
C[N+](C)(C)CCOC(N)=O	y
COc1ccccc1OCCNCC(O)COc1cccc2[nH]c3ccccc3c12 (stereo not drawn)	y

Okay, next one:
Ask: Exam item: decide whether the reported growth for `C[C@]12C=CC(=O)C=C1CC[C@H]1[C@@H]3C[C@@H](O)[C@](O)(C(=O)CO)[C@@]3(C)C[C@H](O)[C@@]12F` is at least 0.09.
Result: y

---

# System: E. coli TESEC Mtb Alr
# assayExplanation: growth (OD600 after 10 h); higher = more growth (less inhibition)
# conditionContext: arabinose 100000 nM; compound 0.1 mM; raw OD600 reference: median of DMSO wells 0.201, cell-free background 0.041
Counter-ions that a name gives are not always drawn.
Exercise: for every item that follows, state its recorded growth.
Numbers only.

Record excerpt, results attached:
> print(dat)
                                   molecule                    tgt  measuredmetric     val
1                 Cc1ncc([N+](=O)[O-])n1CCO  E. coli TESEC Mtb Alr          growth   0.221
2  CCCCC1(COC(=O)CCC(=O)O)C(=O)N(c2ccccc2)N(c2ccccc2)C1=O  E. coli TESEC Mtb Alr          growth   0.192
3  Cc1ccc(-c2cc(C(F)(F)F)nn2-c2ccc(S(N)(=O)=O)cc2)cc1  E. coli TESEC Mtb Alr          growth  0.0415
4  Cc1c(C)c2c(c(C)c1O)CCC(C)(COc1ccc(CC3SC(=O)NC3=O)cc1)O2 (centres undefined)  E. coli TESEC Mtb Alr          growth    0.16

Hi! Can you tell me growth for each of these molecules?
1. CN1C(=O)CC(c2ccccc2)C1=O (centres undefined) [Phensuximide]
2. Cc1c(Cl)cccc1Nc1ncccc1C(=O)O [Clonixin Lysinate]
3. Cc1ccccc1OCC(O)CO (centres undefined)
4. O=C(O)CCNC(=O)c1ccc(/N=N/c2ccc(O)c(C(=O)O)c2)cc1 [Balsalazide Sodium]
5. N=C(N)NC(=N)NCCc1ccccc1 [Phenformin hydrochloride]

Result:
[0.183, 0.173, 0.209, 0.213, 0.2]
